tested on: HCT-116; assay: Cytotoxicity against human HCT116 cells after 72 hrs by MTT assay; type: functional, cell-based; conditions: HCT-116, 72 h
# IC50 annotations

These solved cases illustrate the format of a correct answer.
{"columns": ["COMPOUND", "RESULT"],
 "data": [
  ["COc1ccc2[nH]c3c(c2c1)CCN1C(=O)c2c(ccc4ccccc24)OC31 (stereo not drawn)", "> 200 µM"],
  ["O=C1c2cc([N+](=O)[O-])ccc2OC2c3[nH]c4ccccc4c3CCN12 (stereo not drawn)", "> 200 µM"]
]}

Now for the compound whose IC50 we want.
For COc1ccc2[nH]c3c(c2c1)CCN1C(=O)c2cc([N+](=O)[O-])ccc2OC31 (stereo not drawn) , write its IC50. > 200 µM
